Quick reference for Pseudovirus Neturalization among some binders
Molecular target: SARS-CoV-1 spike protein on pseudovirus (SARS-CoV-1, UniProt P59594 14-1255)
Test: cell-based or functional assay
observation-type: Pseudovirus Neturalization

[[record]]
binder = "AB-009769 (antibody, V domains shown) VH: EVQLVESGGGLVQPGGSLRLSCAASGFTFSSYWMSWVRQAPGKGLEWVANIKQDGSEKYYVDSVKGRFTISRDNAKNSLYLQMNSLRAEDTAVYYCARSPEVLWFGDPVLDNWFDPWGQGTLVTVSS VL: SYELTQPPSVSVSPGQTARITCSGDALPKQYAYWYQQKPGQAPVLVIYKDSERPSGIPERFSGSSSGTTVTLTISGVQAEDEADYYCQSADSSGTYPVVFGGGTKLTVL"
endpoint_result = "> 50 µg/mL"

[[record]]
binder = "AB-009620 (antibody, V domains shown) VH: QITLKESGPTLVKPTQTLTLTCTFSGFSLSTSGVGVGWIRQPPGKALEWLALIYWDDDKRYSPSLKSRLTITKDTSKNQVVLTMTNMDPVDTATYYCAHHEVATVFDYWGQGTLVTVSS VL: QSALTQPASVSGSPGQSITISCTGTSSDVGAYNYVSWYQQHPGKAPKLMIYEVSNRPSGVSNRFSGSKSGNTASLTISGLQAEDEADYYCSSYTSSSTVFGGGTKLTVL"
endpoint_result = "> 50 µg/mL"

[[record]]
binder = "AB-009346 (antibody, V domains shown) VH: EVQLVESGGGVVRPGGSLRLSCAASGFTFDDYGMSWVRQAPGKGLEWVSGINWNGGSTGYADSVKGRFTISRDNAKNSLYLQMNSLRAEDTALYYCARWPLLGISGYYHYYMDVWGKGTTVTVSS VL: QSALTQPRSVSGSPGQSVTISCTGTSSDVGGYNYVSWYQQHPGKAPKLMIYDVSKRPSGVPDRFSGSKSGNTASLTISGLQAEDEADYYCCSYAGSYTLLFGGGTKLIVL"
endpoint_result = "> 50 µg/mL"

